Parameter: Intrinsic Gibbs energy change (ΔGint), CAVB. Scope: all listed entries.
target: CAVB (Homo sapiens, UniProt Q9Y2D0); construct: made in house; host or cells: E. coli; assay: Fluorescent thermal shift assay (FTSA), CAVB; assay type: binding; details: 37 °C; calculated (Equation 5)
Sequence (Q9Y2D0 34-317): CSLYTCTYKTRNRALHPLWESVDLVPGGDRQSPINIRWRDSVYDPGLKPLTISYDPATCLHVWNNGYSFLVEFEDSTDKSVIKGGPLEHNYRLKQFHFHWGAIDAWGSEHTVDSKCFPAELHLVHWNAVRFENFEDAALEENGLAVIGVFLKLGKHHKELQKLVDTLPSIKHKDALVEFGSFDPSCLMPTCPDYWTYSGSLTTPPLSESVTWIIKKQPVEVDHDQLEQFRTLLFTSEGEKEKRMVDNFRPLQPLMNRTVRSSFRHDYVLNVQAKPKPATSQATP
QUANTITY KIND: Intrinsic Gibbs energy change (ΔGint), CAVB (kcal/mol)

| MOLECULAR STRING | OBSERVED RESULT |
| --- | --- |
| NS(=O)(=O)c1ccc(N(CCC(=O)O)c2nc(-c3ccc(Cl)cc3)c(Cl)s2)cc1 | -14 |
| CCOC(=O)c1sc(N(CCC(=O)NN)c2ccc(S(N)(=O)=O)cc2)nc1C | -14.7 |
| Cc1csc(N(CCC(=O)O)c2ccc(S(N)(=O)=O)cc2)n1 | -14.1 |
